# system: ROCK2 (Homo sapiens (Human))
# Sequence (O75116 whole entry, species assumed): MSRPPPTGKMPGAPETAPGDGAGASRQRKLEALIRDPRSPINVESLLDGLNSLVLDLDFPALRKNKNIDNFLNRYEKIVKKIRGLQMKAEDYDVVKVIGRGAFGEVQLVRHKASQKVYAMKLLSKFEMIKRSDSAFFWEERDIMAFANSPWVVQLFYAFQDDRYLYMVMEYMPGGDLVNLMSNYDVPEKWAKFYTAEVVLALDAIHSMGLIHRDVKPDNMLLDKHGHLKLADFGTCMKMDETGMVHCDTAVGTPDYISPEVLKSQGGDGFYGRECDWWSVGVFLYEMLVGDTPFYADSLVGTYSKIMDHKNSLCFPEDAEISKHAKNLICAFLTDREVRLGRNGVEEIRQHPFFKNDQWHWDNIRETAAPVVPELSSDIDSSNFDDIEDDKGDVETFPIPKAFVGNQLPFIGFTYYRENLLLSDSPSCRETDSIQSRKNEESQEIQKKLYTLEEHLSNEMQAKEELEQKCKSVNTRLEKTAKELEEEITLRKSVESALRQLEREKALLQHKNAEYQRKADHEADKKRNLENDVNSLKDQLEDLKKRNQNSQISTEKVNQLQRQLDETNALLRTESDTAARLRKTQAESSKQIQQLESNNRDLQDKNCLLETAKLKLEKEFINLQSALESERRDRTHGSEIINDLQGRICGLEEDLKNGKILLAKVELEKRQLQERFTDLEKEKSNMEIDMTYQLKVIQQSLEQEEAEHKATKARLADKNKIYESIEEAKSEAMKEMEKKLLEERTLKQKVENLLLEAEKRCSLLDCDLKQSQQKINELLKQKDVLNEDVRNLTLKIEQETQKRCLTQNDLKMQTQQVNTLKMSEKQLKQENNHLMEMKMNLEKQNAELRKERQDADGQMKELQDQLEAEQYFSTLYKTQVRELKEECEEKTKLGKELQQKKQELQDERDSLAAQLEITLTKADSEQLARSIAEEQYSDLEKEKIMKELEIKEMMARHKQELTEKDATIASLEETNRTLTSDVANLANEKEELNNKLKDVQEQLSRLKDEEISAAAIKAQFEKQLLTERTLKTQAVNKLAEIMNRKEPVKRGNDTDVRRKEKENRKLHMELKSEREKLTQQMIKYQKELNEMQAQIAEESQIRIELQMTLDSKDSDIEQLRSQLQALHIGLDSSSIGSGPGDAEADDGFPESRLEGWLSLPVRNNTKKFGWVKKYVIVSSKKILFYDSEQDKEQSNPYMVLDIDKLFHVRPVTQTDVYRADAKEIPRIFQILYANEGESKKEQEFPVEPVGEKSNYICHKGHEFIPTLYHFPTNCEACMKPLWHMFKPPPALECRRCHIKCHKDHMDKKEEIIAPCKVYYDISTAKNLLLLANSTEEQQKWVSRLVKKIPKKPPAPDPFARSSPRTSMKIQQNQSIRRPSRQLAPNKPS
endpoint name: IC50 (nM)

1: CC(C)(O)COc1ccc2c(C(=O)N[C@H]3C[C@]4(C3)C[C@H](Oc3nn(CCN)cc3C(N)=O)C4)cnn2c1C1CC1 (some centres unmarked)
2: Cc1c(C(=O)N[C@H]2C[C@]3(C2)C[C@H](Oc2nn(-c4ccccc4)cc2C(N)=O)C3)cnn1-c1ccc(Cl)cc1 (some centres unmarked)
3: NC(=O)c1cn(C2CC2)nc1O[C@H]1C[C@@]2(C[C@H](NC(=O)c3nc(C(F)(F)F)n4cc(Br)ccc34)C2)C1 (some centres unmarked)
4: CC(C)(O)COc1ccc2c(C(=O)N[C@H]3C[C@]4(C3)C[C@H](Oc3c(C(N)=O)cnn3C(F)F)C4)cnn2c1C1CC1 (some centres unmarked)
Hello, I need these entries ordered by IC50, highest reading first. Thanks! Would you mind listing the labels in the order asked for?
4, 2, 1, 3
(4: 2400 nM, 2: 450 nM, 1: 254 nM, 3: 35.5 nM)

I: CC(C)C1NC(=O)N([C@H]2C[C@@]3(C[C@H](Oc4nc(C5CC5)sc4C(N)=O)C3)C2)C1=O (some centres unmarked)
II: NC(=O)c1cn(C2CC2)nc1O[C@H]1C[C@@]2(C[C@H](NC(=O)c3nc(C(F)(F)F)n4ccccc34)C2)C1 (some centres unmarked)
# returns the entry with the larger IC50; inputs I and II Field: selected label. Fill in the label of the entry you choose.
I
(I: 587 nM, II: 204 nM)
